# METHOD DESCRIPTION: Solubility of prodrug compounds of Rasagiline in phosphate buffer pH 7.4
# Format: physicochemical
# CONDITIONS USED: pH 7.4, aqueous buffer; phosphate buffer with pH of 7.4; read-out: SOLUBILITY
PARAMETER: solubility

Reference set (3 entries):
C#CCN(C(=O)OCOC(=O)CCCNC(=O)CCCCCCCCCCCCCCC)[C@@H]1CCc2ccccc21    < 5 µg/mL
C#CCN(C(=O)OCOC(=O)CCCC[C@@H]1SC[C@@H]2NC(=O)N[C@@H]21)[C@@H]1CCc2ccccc21    31.7 µg/mL
C#CCN(C(=O)OCOC(=O)CCCCNC(=O)CCCCCCCCCCCCCCC)[C@@H]1CCc2ccccc21    < 5 µg/mL

Lab note: measured solubility of C#CCN(C(=O)OCOC(=O)CCCNC(=O)CCCCCCCCCCCCCCCCCCC)[C@@H]1CCc2ccccc21 was < 5 µg/mL

====

Form field: melting point (one value per entry).

C#CCN(C(=O)OCOC(=O)CCCNC(=O)CCCCCCCCCCCCCCCCC)[C@@H]1CCc2ccccc21    76 to 78 °C
C#CCN(C(=O)OCOC(=O)CCCNC(=O)CCCCCCCCCCCCCCC)[C@@H]1CCc2ccccc21    73 to 75 °C
C#CCN(C(=O)OCOC(=O)CCCCNC(=O)CCCCCCCCCCCCCCCCC)[C@@H]1CCc2ccccc21    75.3 to 77.1 °C
C#CCN(C(=O)OCOC(=O)CC[C@@H](C)C1CCC2C3C(CC[C@@]21C)[C@@]1(C)CC[C@@H](O)C[C@H]1C[C@@H]3O)[C@@H]1CCc2ccccc21 (some centres unmarked)    < 50 °C

Kindly consider the entry below.
Lab note: measured melting point of C#CCN(C(=O)OCOC(=O)CCCCCCCCCCCCCCCCCCC)[C@@H]1CCc2ccccc21 was < 25 °C

====

Form field: melting point (one value per entry).

Reference set (2 entries):
C#CCN(C(=O)OCOC(=O)CCCCNC(=O)CCCCCCCCCCCCCCC)[C@@H]1CCc2ccccc21 [Example 21]    58.3 to 58.9 °C
C#CCN(C(=O)OCOC(=O)CCCNC(=O)CCCCCCCCCCC)[C@@H]1CCc2ccccc21 [Example 16]    56.1 to 59.4 °C

Lab note: measured melting point of C#CCN(C(=O)OCOC(=O)CCCCCCCCCCCCCCCCC)[C@@H]1CCc2ccccc21 [Example 3] was < 25 °C

Lab note: measured melting point of C#CCN(C(=O)OCOC(=O)/C=C/c1ccc(O)c(OC)c1)[C@@H]1CCc2ccccc21 [Example 8] was 130.4 to 133.8 °C

Lab note: measured melting point of C#CCN(C(=O)OCOC(=O)CCCNC(=O)CCCCCCCCCCCCCCCCCCCCC)[C@@H]1CCc2ccccc21 [Example 20] was 55.4 to 56.2 °C

Lab note: measured melting point of C#CCN(C(=O)OCOC(=O)CCCNC(=O)CCCCCCCCCCCCC)[C@@H]1CCc2ccccc21 [Example 17] was 66.3 to 71.8 °C

Lab note: measured melting point of C#CCN(C(=O)OCOC(=O)CC[C@@H](C)C1CCC2C3CC[C@@H]4C[C@H](O)CC[C@]4(C)C3C[C@H](O)[C@@]21C)[C@@H]1CCc2ccccc21 (stereo partly shown) [Example 11] was < 50 °C
